- Test system: OVCAR-3
- ASSAY_PROCEDURE: NCI tumour cell line growth inhibition, 48 h
The source made the active and inactive calls. No stated cut-off is given here; in the data, active = GI50 up to about 1.1 µM and inactive = higher.
This section presents compounds with their documented GI50 values.
EXPERIMENTAL_READOUT: GI50

>>> result("CCOC(=O)CCC1(C(=O)OC)CCCC1=O (stereo unspecified)")
"> 100 µM (inactive)"
>>> result("C=CCc1cc(OC)c2c(c1)C(O)CC(c1ccccc1)O2 (stereo unspecified)")
"> 100 µM (inactive)"
>>> result("CCOP(=O)(C/C=C/Cn1nc(Br)c(=O)[nH]c1=O)OCC")
"> 100 µM (inactive)"
>>> result("c1ccc([P+](CCC[P+](c2ccccc2)(c2ccccc2)c2ccccc2)(c2ccccc2)c2ccccc2)cc1")
"13.5 µM (inactive)"
>>> result("COc1ccc2c(c1)CCc1c-2[nH]c2ccc(OC)cc12")
"> 100 µM (inactive)"
>>> result("CCOC(=O)N1CCN(C=S)CC1")
"> 100 µM (inactive)"

* * *

- Test system: OVCAR-5
- ASSAY_PROCEDURE: NCI tumour cell line growth inhibition, 48 h
Active and inactive are the calls of the source. No stated cut-off is given here; in the data, active = GI50 up to about 1.1 µM and inactive = higher. Square brackets hold non-standard residues; d marks the D form. Peptide text beside a SMILES is read from it. Ac5c = NC1(C(=O)O)CCCC1
EXPERIMENTAL_READOUT: GI50

>>> result("C=CC(C)(C)/C=C/c1ccc(O)cc1")
"46.6 µM (inactive)"
>>> result("COC(=O)c1c[nH]cc1CCCCc1c[nH]cc1C(=O)OC")
"> 100 µM (inactive)"
>>> result("Cc1ccc(C2=NN(C)COC2C(F)(F)F)cc1 (stereo unspecified)")
"> 100 µM (inactive)"
>>> result("CC(O)=NC(Cc1ccc2ccccc2c1)C(O)=NC(Cc1ccc(Cl)cc1)C(O)=NC(Cc1c[nH]c2ccccc12)C(O)=NC(CO)C(O)=NC(Cc1ccc(O)cc1)C(O)=NC(CCCN=C(N)N)C(O)=NC(CC(C)C)C(O)=NC(CCCN=C(N)N)C(=O)N1CCCC1C(O)=NC(C)C(=N)O (stereo unspecified)")
"41.3 µM (inactive)"
>>> result("O=C1Sc2ccccc2C(=O)N2CCSC12 (stereo unspecified)")
"> 100 µM (inactive)"
>>> result("CCCCCCCCCCCC1CC(=O)NCCCN(C)CCCCN(C)CCCN1C (stereo unspecified)")
"1.85 µM (inactive)"
>>> result("NCC(=O)NC1(C(=O)O)CCCC1 (H-Gly-[Ac5c]-OH)")
"> 100 µM (inactive)"
>>> result("O=C(O)CCS/C(=C\\C(SCCC(=O)O)c1ccc(Cl)cc1)c1ccc(Cl)cc1 (stereo unspecified)")
"> 100 µM (inactive)"
>>> result("CCOP(=O)(C=C=C(C)C)OCC")
"> 100 µM (inactive)"
>>> result("O=C1NC(Cc2ccc(O)cc2)C(=O)NC1Cc1ccc(O)cc1 (stereo unspecified)")
"> 100 µM (inactive)"
>>> result("O=C(O)CC(O)(C(=O)O)C(O)C(=O)O (stereo unspecified)")
"> 1000 µM (inactive)"
>>> result("COC(=O)[C@@H](OC(C)=O)[C@@H](OC(C)=O)c1nnc2ccc(Cl)nn12")
"> 100 µM (inactive)"
>>> result("Oc1nc2nnc(COc3ccc(Cl)cc3Cl)n2nc1Cc1ccccc1")
"> 100 µM (inactive)"
>>> result("CCOC(=O)/C(=C/c1ccc(C(F)(F)F)cc1)N(CC)CC")
"87.1 µM (inactive)"
>>> result("CC(CC[C@@]1(C)C(=O)CCC2O[C@]21C)[C@H]1C[C@@H](c2ccoc2)OC1=O (stereo partly specified)")
"61.1 µM (inactive)"
>>> result("c1ccc2c(c1)Nc1nc3nonc3nc1N2")
"> 100 µM (inactive)"
